Cited source for all entries: patent US20220332700A1

The reader will find reported IC50 values listed item by item below.
target.desc: recombinant ASK1 (Homo sapiens)
Construct: purchased Carna Biosciences
run.description: ASK1 Biochemical Assay (HTRF KinEASE-STK S3)
particulars: ATP 100 μM; read-out: Biochemical Assay IC50

Example results:
1) CNC(=O)C1CCN(c2ccc(N3CCN(c4cccc(-c5nncn5C(C)C)n4)C3=O)cn2)CC1
< 50 nM
2) CNS(=O)(=O)c1ccc(N2CCN(c3cccc(-c4nncn4C(C)C)n3)C2=O)cc1
< 100 nM
3) CC(C)n1cnnc1-c1cccc(-n2ccn(-c3cc(-n4ccnc4)ncn3)c2=O)n1
> 1000 nM
4) CC(C)n1cnnc1-c1cccc(N2CCN(c3ccc(CS(C)(=O)=O)cc3)C2=O)n1
< 100 nM
5) CC(C)n1cnnc1-c1cccc(N2CCN(c3ccc(C(O)C(F)(F)F)cc3)C2=O)n1 (centres unmarked)
< 100 nM
6) CC(C)n1cnnc1-c1cccc(N2CCN(c3ccc(C(C#N)N4CCOCC4)nc3)C2=O)n1 (centres unmarked)
< 100 nM
7) CC(C)n1cnnc1-c1cccc(N2CCN(c3cnc(S(C)(=O)=O)nc3)C2=O)n1
< 100 nM

Would you kindly look at the next entry?
q: Respond only with IC50 recorded for CC(C)n1cnnc1-c1cccc(N2CCN(c3ccc(NC4CCOC4)cc3)C2=O)n1 (centres unmarked)
a: < 100 nM

====

target.desc: Human ASK1 (Homo sapiens)
Construct: expressed in transfected cells; host or cells: HEK293T-AP1
Sequence (Q99683 1-1374): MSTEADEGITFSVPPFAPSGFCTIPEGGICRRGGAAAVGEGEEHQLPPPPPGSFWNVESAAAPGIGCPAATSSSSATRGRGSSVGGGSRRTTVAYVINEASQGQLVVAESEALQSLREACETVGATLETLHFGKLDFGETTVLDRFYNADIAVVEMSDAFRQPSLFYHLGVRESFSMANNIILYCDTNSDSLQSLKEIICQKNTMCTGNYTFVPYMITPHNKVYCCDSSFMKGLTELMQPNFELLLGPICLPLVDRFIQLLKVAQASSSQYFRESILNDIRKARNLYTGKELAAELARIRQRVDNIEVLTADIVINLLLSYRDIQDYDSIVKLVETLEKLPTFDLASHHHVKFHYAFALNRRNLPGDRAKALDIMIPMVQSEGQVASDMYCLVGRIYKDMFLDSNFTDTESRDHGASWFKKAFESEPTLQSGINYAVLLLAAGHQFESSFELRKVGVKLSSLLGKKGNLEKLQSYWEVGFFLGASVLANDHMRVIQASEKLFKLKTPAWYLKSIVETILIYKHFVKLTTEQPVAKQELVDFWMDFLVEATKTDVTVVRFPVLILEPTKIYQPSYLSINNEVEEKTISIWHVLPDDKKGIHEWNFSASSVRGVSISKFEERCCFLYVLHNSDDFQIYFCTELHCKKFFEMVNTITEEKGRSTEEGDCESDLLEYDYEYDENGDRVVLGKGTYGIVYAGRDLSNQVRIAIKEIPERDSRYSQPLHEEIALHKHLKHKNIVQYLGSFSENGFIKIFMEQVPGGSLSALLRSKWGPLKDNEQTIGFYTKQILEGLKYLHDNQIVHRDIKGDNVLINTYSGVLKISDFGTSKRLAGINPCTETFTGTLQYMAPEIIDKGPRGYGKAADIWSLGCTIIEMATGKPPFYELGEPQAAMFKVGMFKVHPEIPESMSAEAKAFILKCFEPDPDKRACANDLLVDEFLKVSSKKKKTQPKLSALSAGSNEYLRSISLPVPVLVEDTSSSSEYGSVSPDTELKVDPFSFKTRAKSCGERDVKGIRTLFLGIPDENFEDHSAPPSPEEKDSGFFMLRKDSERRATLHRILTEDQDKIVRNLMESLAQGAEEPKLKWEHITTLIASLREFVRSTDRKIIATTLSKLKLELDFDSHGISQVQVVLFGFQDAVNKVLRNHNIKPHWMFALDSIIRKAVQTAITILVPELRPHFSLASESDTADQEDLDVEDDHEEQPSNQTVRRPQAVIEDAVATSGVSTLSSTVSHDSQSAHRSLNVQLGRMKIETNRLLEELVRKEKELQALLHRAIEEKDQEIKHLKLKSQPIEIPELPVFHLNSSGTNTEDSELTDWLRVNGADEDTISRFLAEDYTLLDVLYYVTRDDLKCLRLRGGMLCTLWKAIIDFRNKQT
run.description: ASK1 Cell Based Assay (phospho p38 read out in hASK1 transfected HEK293T-AP1 cells)
particulars: HEK293T-AP1 cells, 1 mM hydrogen peroxide, phospho p38; read-out: Cell Based Assay IC50
Description: HEK293T-AP1 cells were seeded at a density of 20,000 cells per well in a poly-d-lysine coated 96 well microplate. Next day, cells were transfected with hASK1-pcDNA3.1 vector using lipofectamine 3000. […] Phospho p38 levels in the lysate was detected by using CisbioPhospho-p38 MAPK (Thr180/Tyr182) #64P38PEG.Four microliters of phospho p38 antibodies labelled with europium cryptate and d2 acceptor, were added to the lysate and incubated overnight. […]
assay.endpoint: IC50

Example results:
1) CC(C)n1cnnc1-c1cccc(N2CCN(Cc3ccc(N4CCOCC4)cc3)C2=O)n1 [Example 1112]
> 1 µM
2) CC(C)n1cnnc1-c1cccc(N2CCN(c3ccc(-n4cnc(C5CC5)c4)cc3)C2=O)n1 [Example 1040]
> 10 µM
3) CC(C)n1cnnc1-c1cccc(N2CCN(c3cccc(-c4ccc(S(C)(=O)=O)cc4)c3)C2=O)n1 [Example 1007]
> 1 µM
4) CC(C)n1cnnc1-c1cccc(N2CCN(c3ccc(CS(C)(=O)=O)cc3)C2=O)n1 [Example 1047]
> 1 µM
5) CC(C)n1cnnc1-c1cccc(N2CCN(c3ccc(N4[C@H](C)COC[C@@H]4C)cc3)C2=O)n1 [Example 1085]
> 0.1 µM
6) CC(C)n1cnnc1-c1cccc(N2CCN(c3ccc(N(C)C)nc3)C2=O)n1 [Example 1105]
> 0.1 µM
7) COCCCNc1ccc(N2CCN(c3cccc(-c4nncn4C(C)C)n3)C2=O)cn1 [Example 1118]
> 1 µM

Would you kindly look at the next entry?
q: Respond only with IC50 recorded for CC1COCCN1c1ccc(N2CCN(c3cccc(-c4nncn4C(C)C)n3)C2=O)cc1 (centres unmarked) [Example 1069]
a: > 0.1 µM
